Consider the following molecules; for each one, report its Kp.
- EXPERIMENT_SUMMARY: Ratio of drug level in brain to plasma in Sprague-Dawley rat
- Assay type: ADME, cell-free
- CONDITION: Sprague-Dawley, brain and plasma, read-out: BPR
Respond using a number only.

Challenge: I would be grateful if you could share the reported Kp for `Cc1c(C(=O)c2cccc3ccccc23)c2cccc3c2n1[C@H](CN1CCOCC1)CO3` .
Response given: 2.5

Challenge: # input molecule: `O=C(NCC1CCC1)c1nccnc1NC(=O)c1ccc(Cn2ccnn2)c2ccccc12` ; wanted: its Kp
Response given: 0.078

Challenge: Request the reported Kp associated with C[S+]([O-])Cc1ccc(C(=O)Nc2cccnc2C(=O)NCC2CCOCC2)c2ccccc12 (configuration not stated)
Response given: 0.018

Challenge: For the molecule shown here, `O=C(NCC1CCOCC1)c1ncccc1NC(=O)c1cccc2ccccc12` , give the reported Kp.
Response given: 3

Challenge: Would you kindly share the measured Kp for `O=C(NCC1CCOCC1)c1ncccc1NC(=O)c1ccc(Cn2ccnn2)c2ccccc12` ?
Response given: 0.093

Challenge: Please report the recorded Kp for `COc1ccc(NC(=O)c2ccc(Cn3ccnn3)c3ccccc23)c(C(=O)NCC2CCOCC2)n1` .
Response given: 0.1

Challenge: Query (molecule): C[S+]([O-])Cc1ccc(C(=O)Nc2nccnc2C(=O)NCC2CCC2)c2ccccc12 (single isomer, unassigned) ; field requested: Kp
Response given: 0.02

---

- EXPERIMENT_SUMMARY: Lipophilicity, log D of the compound
- CONDITION: octanol/water
ENDPOINT_NAME: logD
Would you mind answering with just the numeric figure?

Challenge: Any idea what logD was measured for `O=C(NCC1CCOCC1)c1ncccc1NC(=O)c1cccc2ccccc12` ?
Response given: 5.1

Challenge: For `O=C(NCC1CCC1)c1ncccc1NC(=O)c1cccc2cnccc12` , what is its reported logD?
Response given: 5.1

Challenge: I'd like to know its logD. The compound in question is `C[S@+]([O-])Cc1ccc(C(=O)Nc2cccnc2C(=O)NCC2CCOCC2)c2ccccc12`
Response given: 2.9

Challenge: Query: logD; subject: `O=C(NCC1CCC1)c1ncccc1NC(=O)c1ccc(Cn2cccn2)c2ccccc12`
Response given: 6.2

Challenge: Which logD reading was recorded for the compound `COc1ccc(NC(=O)c2ccc(Cn3ccnn3)c3ccccc23)c(C(=O)NCC2CCCCC2)n1` ?
Response given: 6.7

Challenge: Give the measured logD of `O=C(NCC1CCCCC1)c1ccncc1NC(=O)c1cccc2ccccc12` .
Response given: 5.5

Challenge: For the compound C[S+]([O-])Cc1ccc(C(=O)Nc2ccc(OCCOCCO)nc2C(=O)NCC2CCC2)c2ccccc12 (configuration not stated) , what logD is on record?
Response given: 3.2

Challenge: Could you tell me which logD is on file for `O=C(NCC1CCC1)c1ncccc1NC(=O)c1cccc2cccnc12` ?
Response given: 5.5

Challenge: Need logD, item `O=C(NCC1CCCCC1)c1ncccc1NC(=O)c1cccc2ccccc12`
Response given: 8.1

Challenge: Dear colleague, I am looking for the recorded logD of the following compound: `COc1ccc(NC(=O)c2ccc(Cn3ccnn3)c3ccccc23)c(C(=O)NCC2CCC2)n1`
Response given: 5.7

Challenge: Any idea what its logD is? The compound is C[S+]([O-])Cc1ccc(C(=O)Nc2cccnc2C(=O)NCC2CCOCC2)c2ccccc12 (configuration not stated)
Response given: 2.8

Challenge: Entry `O=C(NCC1CCC1)c1nc(OCCOCCO)ccc1NC(=O)c1ccnc2ccccc12` has what logD?
Response given: 4.1
